Target: aggregated synthetic Aβ40 (Homo sapiens)
Construct: Synthetic Aβ40 is aggregated at a concentration of 50 μM
Assay: Thiazin-red R displacement fluorescence assay on aggregated A-beta
Details: displacement of Thiazin-red R from aggregated Aβ40; compound 0.3 nM to 10000 nM; 30 min room temperature; Ex 531 nm/Em 595 nm
Reported metric: IC50 (nM)
Give the quantity in nM, number only.

Example entries and their recorded answers appear below.
### Prompt Report value only: IC50, aggregated synthetic Aβ40 (Homo sapiens), "COc1cc(/C=c2\sc3nc(-c4cc(C)nc(C)c4)cn3c2=O)cc(OC)c1O"
### Response 68

### Prompt Tell me its IC50 on aggregated synthetic Aβ40 (Homo sapiens): "COc1cc(/C=c2\sc3nc(-c4ccc(F)c(C(F)(F)F)c4)cn3c2=O)cc(Br)c1O"
### Response 5910

### Prompt Quote IC50 with test system aggregated synthetic Aβ40 (Homo sapiens) for "COc1cc(/C=c2\sc3nc(-c4ccc(C(=O)NCCNC(=O)OC(C)(C)C)cc4)cn3c2=O)cc(Cl)c1O"
### Response 118

### Prompt State IC50 (aggregated synthetic Aβ40 (Homo sapiens)) of "CCCOc1cc(/C=c2\sc3nc(-c4ccncc4)cn3c2=O)cc(F)c1O" .
### Response 2670

### Prompt Provide measured IC50 on aggregated synthetic Aβ40 (Homo sapiens) for "COc1cc(/C=c2\sc3nc(-c4ccc(C(F)(F)F)c(F)c4)cn3c2=O)cc(OC)c1O" please.
### Response 43

### Prompt Fill in: IC50 on aggregated synthetic Aβ40 (Homo sapiens), entry "CCOc1cc(/C=c2\sc3nc(-c4ccc(Cl)cc4)cn3c2=O)cc(OC)c1O"
### Response 4

### Prompt GET IC50 | system: aggregated synthetic Aβ40 (Homo sapiens) | item: "COc1cc(/C=c2\sc3nc(-c4cccc(F)c4)cn3c2=O)cc(Cl)c1O"
### Response 3320

More entries:
### Prompt Please report the measured IC50 for "COc1cc(/C=c2\sc3nc(-c4ccncc4)cn3c2=O)cc(OC)c1O" tested on aggregated synthetic Aβ40 (Homo sapiens).
### Response 93

====

The entries below are paired with their reported IC50.
Target: aggregated synthetic Aβ40 (Homo sapiens, UniProt P05067)
Construct: Synthetic Aβ40 is aggregated at a concentration of 50 μM
Sequence (P05067 672-711 limits assumed): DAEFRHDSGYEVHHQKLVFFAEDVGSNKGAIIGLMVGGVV
Test: Thiazin-red R displacement fluorescence assay on aggregated A-beta
Assay type: binding
Details: displacement of Thiazin-red R from aggregated Aβ40; compound 0.3 nM to 10000 nM; 30 min room temperature; Ex 531 nm/Em 595 nm
Method: Assay for Determination of […] for Tau and A-Beta Recombinant human-microtubule associated protein Tau purified from E. coli is aggregated at a concentration of 5 μM with Arachidonic Acid (100 μM) in Tris 10 mM pH8, 24 h at 37° C. Synthetic Aβ40 is aggregated at a concentration of 50 μM with Arachidonic Acid (100 μM) in Tris 10 mM pH8, for three days at 37° C., under shaking at 150 rpm. […]
The reply should contain only the number, in nM.

Examples with their reported IC50 follow.
### Prompt Enter IC50 (test system aggregated synthetic Aβ40 (Homo sapiens, UniProt P05067)) for "COc1cc(/C=c2\sc3nc(-c4ccc(C(=O)N(C)C)cc4)cn3c2=O)cc(Cl)c1O"
### Response 550

### Prompt Supply IC50 measured with aggregated synthetic Aβ40 (Homo sapiens, UniProt P05067) for "COc1cc(/C=c2\sc3nc(-c4cccc(OC(F)(F)F)c4)cn3c2=O)cc(OC(C)C)c1O" .
### Response 437

---
### Prompt Would you please give the reported IC50 of "COc1cccc(-c2cn3c(=O)/c(=C/c4cc(F)c(O)c(OC)c4)sc3n2)n1" with aggregated synthetic Aβ40 (Homo sapiens, UniProt P05067)?
### Response 1790

### Prompt Quote IC50 with test system aggregated synthetic Aβ40 (Homo sapiens, UniProt P05067) for "COc1cc(/C=c2\sc3nc(-c4ccc(C(=O)O)cc4)cn3c2=O)cc(Cl)c1O"
### Response 1850

### Prompt Please look at COc1cc(/C=c2\sc3nc(-c4ccc(C(=O)NCCCF)cc4)cn3c2=O)cc(Cl)c1O (single isomer, unassigned) [Example 133] and tell me its recorded IC50 on aggregated synthetic Aβ40 (Homo sapiens, UniProt P05067).
### Response 86

### Prompt Specify the recorded IC50 for "CCCOc1cc(/C=c2\sc3nc(-c4cccs4)cn3c2=O)cc(Cl)c1O" , system: aggregated synthetic Aβ40 (Homo sapiens, UniProt P05067).
### Response 718

### Prompt Write down the reported IC50 (system: aggregated synthetic Aβ40 (Homo sapiens, UniProt P05067)) of "COc1cc(/C=c2\sc3nc(-c4cccc(C)c4)cn3c2=O)cc(Cl)c1O"
### Response 1020
